The reader will find reported koff values listed item by item below.
# testSystem: T1, hVISTA-Fc (R&D systems. Cat. No. 7126-B7) (human, UniProt Q9H7M9 33-194)
# T1 construct: Bought antigen; also called human VISTA-Fc; VISTA-FC Human
# T1 sequence: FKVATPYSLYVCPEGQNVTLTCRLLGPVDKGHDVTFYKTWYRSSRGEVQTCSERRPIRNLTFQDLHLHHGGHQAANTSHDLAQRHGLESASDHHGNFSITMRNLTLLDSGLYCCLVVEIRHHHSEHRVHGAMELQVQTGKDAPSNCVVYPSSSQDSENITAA
# experiment: Octet (BLI), antibody immobilised on biosensor, antigen in solution
Just the number plus its unit, please.

Consider the following illustrative entries.
anti-VISTA antibody 1B8 (IgG form) (antibody, V domains shown, also called Anti VISTA 3.0(1B8); anti-VISTA mAb 1B8) VH: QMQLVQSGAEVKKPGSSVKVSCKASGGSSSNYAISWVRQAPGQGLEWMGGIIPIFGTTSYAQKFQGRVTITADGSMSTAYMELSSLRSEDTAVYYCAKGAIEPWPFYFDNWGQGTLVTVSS VL: QLVLTQPRSVSGSPGQSVTISCTGTNSDVGAYNYLSWYQQLPGRAPKVIIYDVNKRPSGVPDRFSGSRSGKTASLTISGLQAEDEADYYCAAWDDSLNGLVFGGGTKLTVLG : 0.00103 s⁻¹
anti-VISTA antibody 3C5 (IgG form) (antibody, V domains shown) VH: QVQLVQSGAEVKKPGASVKLSCKASGYTFSSYWMHWVRQAPGQRLEWMGEINPGNGHTNYNEKFKSRVTITVDKSASTAYMELSSLRSEDTAVYYCAKDIAYYDFWSGDAFDLWGQGTMVTVSS VL: SYELTQPLSVSVSPGQTASITCSGDKLGNKYASWYQQKPGQSPVLVIYQDNKRPSGIPERFSGSNSGNTATLTISGTQATDEADYYCQTWDRSTGVFGTGTKVTVLG : 0.00367 s⁻¹

// next item, koff requested
Prompt line: For anti-VISTA antibody 2C12 (IgG form) (antibody, V domains shown, also called #2C12(H); #2C12(M)) VH: QVQLVESGAEVKKPGASVKVSCKASGYIFTDYYMHWVRQAPGQGLEWMGVINPYDGRTSFAQKFQGRLTVTRDTSTSTAYMDLSGLRSEDTAVYYCAKQMGIWDYDAFDIWGQGTMVTVSS VL: QFVLTQPSSVSGAPGQRVIISCTGSSSNIGAGYDVHWYQQLPGTAPKVLIYGNSDRPSGVPDRFSASKSATSASLAITGLQAEDEADYYCVAWDDSLKAYVFGTGTKVTVLG , what is its reported koff?
Response line: 8.48e-05 s⁻¹
